Quick reference: MIC of the listed items.
tested on: Staphylococcus epidermidis CCM 7221; test: MIC, microdilution method; type: cell-based; conditions: Staphylococcus epidermidis, CCM7221

Known MIC results, listed for orientation:
compound: NCCCN(CCCN)CCP(=O)(OCCCCCCCCCCCCOP(=O)(CCN(CCCN)CCCN)OCCc1ccccc1)OCCc1ccccc1 (centres unmarked) [Example 50]
property_name: MIC
meas_value: 0.5 µg/mL

compound: CCCC/C=C\CCOP(=O)(CCN(CCCN)CCCN)OCCCCCOP(=O)(CCN(CCCN)CCCN)OCC/C=C\CCCC (centres unmarked) [Example 58]
property_name: MIC
meas_value: 2 µg/mL

compound: CCCCCCOP(=O)(CCN(CCCN)CCCN)OCCCCCCCCCCOP(=O)(CCN(CCCN)CCCN)OCCCCCC.Cl.Cl.Cl.Cl (centres unmarked) [Example 43]
property_name: MIC
meas_value: 0.5 µg/mL

compound: CCCCCOP(=O)(CCN(CCCN)CCCN)OCCCCCCCCCCCCCCOP(=O)(CCN(CCCN)CCCN)OCCCCC.Cl.Cl.Cl.Cl.Cl.Cl (centres unmarked) [Example 53]
property_name: MIC
meas_value: 0.5 µg/mL

compound: CCCCCCCCCCOP(=O)(CCN(CCCN)CCCN)OCCCCCCCCCCOP(=O)(CCN(CCCN)CCCN)OCCCCCCCCCC (centres unmarked) [Example 45]
property_name: MIC
meas_value: 1 µg/mL

compound: CCCCCOP(=O)(CCN(CCCN)CCCN)OCCCCCCCCOP(=O)(CCN(CCCN)CCCN)OCCCCC.Cl.Cl.Cl.Cl.Cl.Cl (centres unmarked) [Example 37]
property_name: MIC
meas_value: 0.5 µg/mL

Asked: What value of measured MIC is listed for CCCCOP(=O)(CCN(CCCN)CCCN)OCCCCCCCCCCOP(=O)(CCN(CCCN)CCCN)OCCCC.Cl.Cl.Cl.Cl.Cl.Cl (centres unmarked) [Example 41] ?
Given back: 1 µg/mL

Asked: Can you handle CCCCCOP(=O)(CCN(CCCN)CCCN)OCCCCCCCCCCOP(=O)(CCN(CCCN)CCCN)OCCCCC.Cl.Cl.Cl.Cl.Cl.Cl (centres unmarked) [Example 42] next?
Given back: 0.5 µg/mL
